biological target: Polyketide synthase Pks13 (Mycobacterium tuberculosis (strain ATCC 25618 / H37Rv)); assay: Mycobacterium tuberculosis Polyketide synthase 13 Thioesterase (PKS13); type: functional; design: scale not given: in the data most compounds retested in dose-response had high values; conditions: 30 µM
Among all 67,000 compounds or so, about 300 (0.45%) showed an effect of 50% or more. Shown is part of a subset that was picked to be rich in strong results.
Listed molecules paired with reported Percent Effect
Write it as a number; the unit % goes unstated.

Worked examples, 5 molecules total:
Compound structure	U	Percent Effect
Cc1csc(CCNCc2cnc3c(c2)c(C)nn3C)n1	%	-13.2
Cc1csc(CNc2nc3c(s2)c(C)nn3C)n1	%	24
CCn1cc(-c2cc(C(F)F)n3nc(CCC(=O)O)nc3n2)cn1	%	32.3
CCn1cc(-c2cc(C(F)F)n3nc(CC(=O)O)nc3n2)cn1	%	62.5
CN(C[C@@H]1CCC[C@@H]2CN(c3ncccn3)C[C@@H]21)C1CC1	%	75.8

Ask: For the molecule Cc1nc([C@H]2C[C@@H]3CCN(Cc4scnc4C)C[C@H]3O2)no1 , what Percent Effect is on record?
Result: -27.4

* * *

Listed compounds paired with reported Percent Effect
target: Polyketide synthase Pks13 (Mycobacterium tuberculosis (strain ATCC 25618 / H37Rv)) (UniProt I6X8D2); test: Mycobacterium tuberculosis Polyketide synthase 13 Thioesterase (PKS13); format: functional; set-up: scale not given: in the data most compounds retested in dose-response had high values; conditions: 30 µM
Sequence (I6X8D2 whole entry): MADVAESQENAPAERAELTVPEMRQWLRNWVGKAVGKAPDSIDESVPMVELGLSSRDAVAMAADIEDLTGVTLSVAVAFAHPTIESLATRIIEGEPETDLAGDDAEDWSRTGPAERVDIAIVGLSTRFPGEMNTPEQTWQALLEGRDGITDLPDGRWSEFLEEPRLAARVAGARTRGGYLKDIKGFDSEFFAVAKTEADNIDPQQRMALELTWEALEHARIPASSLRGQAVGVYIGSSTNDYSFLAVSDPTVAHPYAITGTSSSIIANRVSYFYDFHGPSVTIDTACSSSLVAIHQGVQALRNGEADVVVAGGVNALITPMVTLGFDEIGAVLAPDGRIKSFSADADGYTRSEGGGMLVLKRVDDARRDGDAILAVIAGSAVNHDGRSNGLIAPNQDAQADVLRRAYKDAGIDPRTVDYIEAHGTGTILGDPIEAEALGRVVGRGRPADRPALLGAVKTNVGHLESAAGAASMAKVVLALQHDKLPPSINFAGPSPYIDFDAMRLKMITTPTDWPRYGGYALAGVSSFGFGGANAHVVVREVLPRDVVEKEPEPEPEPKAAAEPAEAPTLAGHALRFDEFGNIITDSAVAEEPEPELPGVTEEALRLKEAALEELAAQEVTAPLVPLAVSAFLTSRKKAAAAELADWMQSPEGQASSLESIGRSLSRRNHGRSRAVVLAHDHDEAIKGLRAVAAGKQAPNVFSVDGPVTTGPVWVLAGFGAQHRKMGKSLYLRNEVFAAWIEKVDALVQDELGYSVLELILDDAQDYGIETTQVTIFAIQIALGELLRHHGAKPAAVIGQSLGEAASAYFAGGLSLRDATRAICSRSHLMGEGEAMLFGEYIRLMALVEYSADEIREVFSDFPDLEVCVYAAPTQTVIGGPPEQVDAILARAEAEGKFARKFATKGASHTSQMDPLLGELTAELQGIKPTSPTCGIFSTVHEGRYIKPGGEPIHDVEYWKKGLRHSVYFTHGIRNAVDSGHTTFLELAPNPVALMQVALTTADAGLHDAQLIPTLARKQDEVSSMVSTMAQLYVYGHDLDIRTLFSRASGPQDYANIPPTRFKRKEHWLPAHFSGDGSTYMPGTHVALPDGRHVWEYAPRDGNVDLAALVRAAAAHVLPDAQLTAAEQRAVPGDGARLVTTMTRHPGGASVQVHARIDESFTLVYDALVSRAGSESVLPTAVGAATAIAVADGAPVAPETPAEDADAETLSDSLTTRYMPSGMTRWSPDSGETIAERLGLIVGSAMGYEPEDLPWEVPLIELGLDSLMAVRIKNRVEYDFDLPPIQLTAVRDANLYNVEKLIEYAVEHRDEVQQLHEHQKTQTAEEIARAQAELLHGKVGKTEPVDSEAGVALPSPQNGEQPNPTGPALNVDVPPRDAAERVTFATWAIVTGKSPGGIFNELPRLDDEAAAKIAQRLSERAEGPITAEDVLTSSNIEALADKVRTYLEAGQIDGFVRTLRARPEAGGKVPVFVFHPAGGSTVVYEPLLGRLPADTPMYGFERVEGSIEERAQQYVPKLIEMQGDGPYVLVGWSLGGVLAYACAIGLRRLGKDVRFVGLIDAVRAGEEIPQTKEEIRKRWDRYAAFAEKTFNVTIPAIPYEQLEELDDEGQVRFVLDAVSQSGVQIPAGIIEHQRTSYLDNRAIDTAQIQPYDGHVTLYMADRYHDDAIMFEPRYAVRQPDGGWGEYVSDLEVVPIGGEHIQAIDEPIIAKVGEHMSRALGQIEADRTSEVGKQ
Hit rate of the full screen: of about 67,000 compounds, about 300 (0.45%) showed an effect of 50% or more. The list comes from a sample in which strong results are over-represented; it also holds close analogues and randomly drawn compounds.
Write it as a number; the unit % goes unstated.

Compound	Percent Effect, %
COCC(=O)N1CC[C@@H]2O[C@H](COCc3ccncc3)CC[C@@H]21	-12.9

Ask: For the compound CCC(C)NC(=O)c1ccc(-c2ccco2)[nH]c1=O (configuration not stated) , what Percent Effect is on record?
Result: 7.06

Ask: Item: CC1(C)OCC(CNC(=O)c2cnn(-c3ccc(Cl)cc3)c2N)O1 (configuration not stated)
Result: -15.3

Ask: Item: O=C(CC[C@@H]1CCCN2CCCC[C@H]12)NCCc1nc(O)cc(O)n1
Result: -3.34

Ask: Item: Cc1ccc(-c2ncc(C(=O)NCCNc3ncccn3)s2)c(C)c1
Result: 70.6

Ask: Item: Cc1ccc(NC(=O)c2nc3c(s2)CCCN3C(C)C)cn1
Result: -9.2

Ask: Item: O=C(c1cn2ccsc2n1)N1CCN(CC2CC2)[C@@H]2CS(=O)(=O)C[C@@H]21
Result: -4.84

Ask: Item: Cc1ccc(C)c(-n2ncc(C(=O)NCC3COC(C)(C)O3)c2N)c1 (configuration not stated)
Result: 66.6

Ask: Item: CC(C)=CCN1C[C@H]2CC[C@@H]1CN(C(=O)c1c[nH]c(=O)c(Cl)c1)C2
Result: -3.37

Ask: Item: Cc1ncc(CNCCO)c2cc(C(=O)c3ccc(Br)cc3)oc12
Result: -1.68

Ask: Item: O=C(CSc1nccc(-c2ccc3c(c2)OCO3)n1)N1CCOCC1
Result: 26.7

Ask: Item: CNCc1nc(-c2ccc3c(c2)OCO3)c[nH]1
Result: 0.694

Ask: Item: O=S(=O)(C1CC1)N1CCO[C@@H]2CN(Cc3ccco3)C[C@@H]2C1
Result: -22.6

Ask: Item: CC(C)CN1CCS(=O)(=O)[C@@H]2CCN(S(=O)(=O)N(C)C)CC[C@@H]21
Result: -30.1

Ask: Item: Cc1ncc(CN2CCCC2)c2cc(C(=O)c3ccc(Br)cc3)oc12
Result: -4.91
